Header: pKi / 5-hydroxytryptamine receptor 2A (Rattus norvegicus, UniProt P14842) / multiple publications
pKi: −log10 of the molar value.

Study these solved cases before continuing.
MOLECULE	pKi
O=C1CSC(=O)N1CCCCCNCC1CCc2ccccc2O1 (stereo not drawn)	< 6.00
Cc1cc2nc(N3CCNCC3)n(Cc3ccccc3)c2cc1C	< 6.00

Hey, 5-hydroxytryptamine receptor 2A (Rattus norvegicus, UniProt P14842) data for O=C(NC(=S)Nc1ccc(Cl)c([N+](=O)[O-])c1)c1ccccc1 : pKi came out at < 5.00

Hey, 5-hydroxytryptamine receptor 2A (Rattus norvegicus, UniProt P14842) data for COc1ccccc1N1CCN(CCCON2C(=O)C3C4C=CC(C4)C3C2=O)CC1 (stereo not drawn) : pKi came out at < 5.00

====

Header: Ki / 5-hydroxytryptamine receptor 2A (Rattus norvegicus, UniProt P14842) / multiple publications

Study these solved cases before continuing.
MOLECULE	ASSAY_READOUT	OBSERVED_RESULT
CCn1c2c(c3ccccc31)CN(CCCOc1ccccc1)CC2	Ki	50 nM
CCCn1c(=O)n(CCCCN2CCN(c3ccc(F)cc3)CC2)c2ccccc21	Ki	54.7 nM
O=C1c2ccoc2CCC1CCN1CCC(c2noc3cc(F)ccc23)CC1 (configuration not stated)	Ki	1.07 nM
CC(C)N[C@H]1COc2cccc(C(N)=O)c2C1	Ki	> 1000 nM
O=S(=O)(c1ccc2ccccc2c1)N1CCC(CN2CCC(c3noc4cc(F)ccc34)CC2)CC1	Ki	32.6 nM
O=C1CCc2cc(CCCN3CCC(c4noc5cc(F)ccc45)CC3)cc3c2N1CC3	Ki	29.3 nM

Now consider a different molecule.
Hey, 5-hydroxytryptamine receptor 2A (Rattus norvegicus, UniProt P14842) data for Cc1ccc(NC(=O)N2CCC(CN3CCC(c4noc5cc(F)ccc45)CC3)CC2)cc1 : Ki came out at 26.9 nM

====

Header: pKi / UniProt P14842 / multiple publications
Give only the number. pKi is defined as minus log10 of concentration in molar units.

COMPOUND	pKi
C=CC(=O)N1CCc2c(n(CCCCN3CCN(c4ccccc4OC)CC3)c3ccccc23)C1	7.36
O=C1C2C3C=CC(C3)C2C(=O)N1OCCCN1CCN(c2ccccc2Cl)CC1 (stereo unspecified)	5.41

The measured pKi associated with COc1ccccc1N1CCN(CCCN2C(=O)NC(c3ccccc3)(C3CC3)C2=O)CC1 (racemic) reads 6.15

The measured pKi associated with O=C(NCCN1CCC(c2nc3ccccc3s2)CC1)C1COc2ccccc2O1 (stereo unspecified) reads 6.95

The measured pKi associated with O=C(CCCN1CCN(c2nsc3ccccc23)CC1)c1cc2c3c(c1)CCN3C(=O)CC2 reads 7.30

The measured pKi associated with O=c1oc2cc(OCCCCN3CCC(c4noc5cc(F)ccc45)CC3)ccc2c2c1CCC2 reads 7.88

====

Header: pKi / 5-hydroxytryptamine receptor 2A (Rattus norvegicus, UniProt P14842) / multiple publications
pKi: −log10 of the molar value.

N[C@]1(C(=O)O)C[C@@H](C(=O)O)C[C@H]1C(=O)O < 4.30

Hey, 5-hydroxytryptamine receptor 2A (Rattus norvegicus, UniProt P14842) data for CC(C)Oc1ccccc1OCCNCc1cccc(-c2cccs2)c1 : pKi came out at 6.25

Hey, 5-hydroxytryptamine receptor 2A (Rattus norvegicus, UniProt P14842) data for COc1cccc2nc(N3CCNCC3)n(Cc3ccccc3)c12 : pKi came out at < 6.00

Hey, 5-hydroxytryptamine receptor 2A (Rattus norvegicus, UniProt P14842) data for COc1ccc(N2CCN(CCCCOc3ccc4c5c(c(=O)oc4c3)CCC5)CC2)cc1 : pKi came out at < 5.00
